These entries and their values trace back to the supplement of paper PMC8285479.

# System: NCI-H1944
# assay_name: normalised cell viability (NPI; 0 = phenylarsine oxide control, 1 = DMSO control) (fraction of DMSO control); higher = more viable cells (less compound toxicity)
# condition_label: glucocorticoid arm: hydrocortisone 2.75 uM co-treatment; compound 1 µM; 6 days
Counter-ions that a name gives are not always drawn. In all, about 1,900 compounds were measured (“normalised cell viability (NPI; 0 = phenylarsine oxide control, 1 = DMSO control)”: median about 1, lowest 2% from about 0.039 on). This excerpt belongs to a sample that is enriched for the lowest values.
Below: a set of entries, each annotated with reported normalised cell viability.
Quick one: just the number, no unit, thanks!

>>> quantitative_readout("COc1cccc(NC(=O)/C=C/c2ccc(Cl)cc2)c1")
0.953
>>> quantitative_readout("CCCCCC[C@@H]([C@@H](C)O)n1cnc2c(N)ncnc21 [erythro-9-(2-Hydroxy-3-nonyl)adenine hydrochloride]")
0.999

# context switch: different compound, same normalised cell viability
Name the reported normalised cell viability value associated with the compound O=C(/C=C/c1cccc(S(=O)(=O)Nc2ccccc2)c1)NO
0.977

---

Below: a set of entries, each annotated with reported normalised cell viability.
# Tested on: NCI-H1944
# assay_name: normalised cell viability (NPI; 0 = phenylarsine oxide control, 1 = DMSO control) (fraction of DMSO control); higher = more viable cells (less compound toxicity)
# condition_label: glucocorticoid arm: vehicle; compound 1 µM; 6 days
Structures can show the parent of a compound that is named as a salt. Over roughly 1,900 compounds, “normalised cell viability (NPI; 0 = phenylarsine oxide control, 1 = DMSO control)” has its median near 1; the lowest 2% begin near 0.039. The sample as a whole holds a higher share of the lowest values than the screen did.
Quick one: just the number, no unit, thanks!

>>> quantitative_readout("COc1cccc2c1C(=O)c1c(O)c3c(c(O)c1C2=O)C[C@@](O)(C(=O)CO)C[C@@H]3O[C@H]1C[C@H](N)[C@H](O)[C@H](C)O1 [Doxorubicin hydrochloride; 4'-Epiadriamycin; Doxorubicin HCl]")
0.178
>>> quantitative_readout("Cc1nc(N=Nc2cc([N+](=O)[O-])ccc2Cl)c(COP(=O)(O)O)c(C=O)c1O [MRS 2211 sodium salt hydrate]")
1.01
>>> quantitative_readout("N#C/C(=C/c1ccc(O)c(O)c1)C(=O)NCc1ccccc1")
1.02
>>> quantitative_readout("CC(=O)[C@]1(O)Cc2c(O)c3c(c(O)c2[C@@H](O[C@H]2C[C@H](N)[C@H](O)[C@H](C)O2)C1)C(=O)c1ccccc1C3=O [Idarubicin hydrochloride; Idarubicin; 4-DMD HCl]")
0.00163

Name the reported normalised cell viability value associated with the compound COc1cccc2c1C(=O)c1c(O)c3c(c(O)c1C2=O)C[C@@](O)(C(C)=O)C[C@@H]3O[C@H]1C[C@H](N)[C@H](O)[C@H](C)O1 [Daunorubicin hydrochloride; Daunorubicin HCl]
0.0031

---

# Tested on: NCI-H1944
# assay_name: normalised cell viability (NPI; 0 = phenylarsine oxide control, 1 = DMSO control) (fraction of DMSO control); NCI-H1944 is a non-small cell lung cancer line; higher = more viable cells (less compound toxicity)
# condition_label: glucocorticoid arm: hydrocortisone 2.75 uM pre-treated 2 days and continued; compound 5 µM; 6 days
Counter-ions that a name gives are not always drawn. Whole data set: some 1,900 compounds, median “normalised cell viability (NPI; 0 = phenylarsine oxide control, 1 = DMSO control)” near 1, cut for the lowest 2% near 0.039. Only a selection was taken, and the lowest values are over-represented in it overall.
endpoint_name: normalised cell viability

>>> result("O=C(CCCCCCC(=O)Nc1ccccc1)NO [Vorinostat (SAHA, MK0683)]")
0.955
>>> result("O=C(CCCCCCC(=O)Nc1ccccc1)NO [Vorinostat; SAHA]")
1.02
>>> result("CC(/C=C/C(=O)NO)=C\\[C@@H](C)C(=O)c1ccc(N(C)C)cc1")
0.00101

Write down the reported normalised cell viability of CC1CCN=C(N)S1 (racemic) [(±)-AMT hydrochloride] , test system: NCI-H1944.
0.975

Write down the reported normalised cell viability of Cc1ccc(C(=O)c2cc(/C=C/C(=O)NO)n(C)c2)cc1 , test system: NCI-H1944.
1.02

Write down the reported normalised cell viability of N[C@@H](CCCC(=O)O)C(=O)O , test system: NCI-H1944.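 Note: CTB read-out in 384-well plates, triplicate wells, NPI normalised per plate against 1 µM phenylarsine oxide (0) and 0.1% DMSO (1) controls.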
0.97
